- assayed target: Calcium-dependent protein kinase 4 (Plasmodium falciparum (isolate 3D7)) (UniProt Q8IBS5)
- Sequence (Q8IBS5 whole entry, looked up): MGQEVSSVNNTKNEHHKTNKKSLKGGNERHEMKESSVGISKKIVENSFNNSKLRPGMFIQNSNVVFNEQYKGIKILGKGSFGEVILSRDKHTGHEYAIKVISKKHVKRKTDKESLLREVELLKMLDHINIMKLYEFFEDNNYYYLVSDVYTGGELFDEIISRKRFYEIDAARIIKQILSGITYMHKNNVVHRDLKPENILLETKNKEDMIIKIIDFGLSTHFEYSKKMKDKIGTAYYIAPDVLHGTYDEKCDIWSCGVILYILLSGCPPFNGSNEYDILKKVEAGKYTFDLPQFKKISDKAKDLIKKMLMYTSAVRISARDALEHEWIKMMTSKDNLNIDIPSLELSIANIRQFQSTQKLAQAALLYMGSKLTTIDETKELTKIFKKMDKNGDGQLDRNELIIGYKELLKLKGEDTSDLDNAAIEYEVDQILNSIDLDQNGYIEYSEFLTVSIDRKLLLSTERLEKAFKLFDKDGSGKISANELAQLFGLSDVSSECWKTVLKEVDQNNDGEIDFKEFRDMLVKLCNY
- assay notes: PfCDPK4 kinase inhibitors, biochemical, TCAMS library (AID 1159588)
- condition context: recombinant PfCDPK4, Kinase-Glo ATP depletion luminescence
Entries with a potency or affinity are not part of this list. Calls of active or inactive are those of the source. No cut-off is given here; in the data, nearly all actives have IC50 up to about 0.91 µM.

[
  {
    "compound structure string": "Cc1ccc2c(NN=Cc3ccc(N(C)C)cc3)cc(C)nc2c1",
    "outcome": "inactive"
  },
  {
    "compound structure string": "O=S(=O)(NCCCN1CCOCC1)c1ccc2nccc(Nc3ccc(Oc4ccccc4)cc3)c2c1",
    "outcome": "inactive"
  },
  {
    "compound structure string": "CNC(=O)CC(=O)NCCc1ccc(Cl)cc1",
    "outcome": "inactive"
  },
  {
    "compound structure string": "CC(C)NCc1ccc(-c2cccc(NC(=O)c3ccc(Cl)cc3)c2)cc1",
    "outcome": "inactive"
  },
  {
    "compound structure string": "CN(c1ccccc1)c1ccnc(/N=C(\\N)Nc2ccc(Cl)cc2)n1",
    "outcome": "inactive"
  },
  {
    "compound structure string": "Cc1ccc(CNC(=O)[C@H](Cc2ccccc2)Nc2cc(C)nc(NCC3CCCCC3)n2)cc1",
    "outcome": "inactive"
  }
]
